experiment: Inhibition of trypsin-like activity of human inducible 20S immunoproteasome incubated for 15 mins before fluorogenic substrate addition

smiles.notation	IC50
C[C@H](NC(=O)[C@H](Cc1ccc(OCc2ccccc2)cc1)NC(=O)c1ccc(-c2c3ccc(=[N+](C)C)cc-3oc3cc(N(C)C)ccc23)c(C(=O)[O-])c1)C(=O)N[C@@H](C[C@]1(O)C(=O)Nc2ccccc21)C(=O)NCc1ccccc1	3530 nM
C[C@H](NC(=O)[C@H](Cc1ccc(OCc2ccccc2)cc1)NC(=O)c1ccc(-c2c3ccc(=O)cc-3oc3cc(O)ccc23)c(C(=O)O)c1)C(=O)N[C@@H](C[C@]1(O)C(=O)Nc2ccccc21)C(=O)NCc1ccccc1	2430 nM
C[C@H](NC(=O)[C@H](Cc1ccc(OCc2ccccc2)cc1)NC(=O)OC(C)(C)C)C(=O)N[C@@H](C[C@]1(O)C(=O)Nc2ccccc21)C(=O)NCc1ccccc1	27700 nM
C[C@H](NC(=O)[C@H](Cc1ccc(OCc2ccccc2)cc1)NC(=O)CCCCCNC(=O)c1ccc(-c2c3ccc(=[N+](C)C)cc-3oc3cc(N(C)C)ccc23)c(C(=O)[O-])c1)C(=O)N[C@@H](C[C@]1(O)C(=O)Nc2ccccc21)C(=O)NCc1ccccc1	1750 nM
C[C@H](NC(=O)[C@H](Cc1ccc(OCc2ccccc2)cc1)NC(=O)CCCCCNC(=O)CCCCCNC(=O)CCCCCNC(=O)c1ccc(-c2c3ccc(=[N+](C)C)cc-3oc3cc(N(C)C)ccc23)c(C(=O)[O-])c1)C(=O)N[C@@H](C[C@]1(O)C(=O)Nc2ccccc21)C(=O)NCc1ccccc1	1730 nM
